The values you see were collected from patent US9546157B2.

Biological target: GHSR1a (Homo sapiens)
Construct: expressed in transfected cells; host or cells: HEK293
Test: Calcium FLIPR assay, GHSR-1a agonism
Format: cell-based
Parameters: unit not given here
Conditions: HEK293/GHSR1a cells
With a cut-off of 2000, any Emax strictly below it is called true (1); any Emax meeting it or above is called false (0).

Answered examples (4):
COC(=O)/C=C/c1ccc(C(C)NC(=O)N(C)C2CCN(C)CC2)c(Cl)c1Cl (stereo not shown) : true (1)
CC(NC(=O)N(C)C1CCN(C)CC1)c1ccc(-c2ccc(C=O)s2)c(Cl)c1Cl (stereo not shown) [Compound H0651] : false (0)
CC(NC(=O)N(C)C1CCN(C)CC1)c1ccc(-c2cccs2)c(Cl)c1Cl (single isomer, unassigned) [Compound H0563] : false (0)
CC(NC(=O)N(C)C1CCN(C)CC1)c1ccc(-c2cnc(CO)cn2)c(Cl)c1Cl (stereo not shown) : true (1)

Item CC(NC(=O)N(C)C1CCN(C)CC1)c1ccc(-c2cncc(CCl)n2)c(Cl)c1Cl (stereo not shown) : Emax beneath 2000, strictly?
true (1)

Item CC(NC(=O)N(C)C1CCN(C)CC1)c1ccc(-c2ccc(C#N)cc2)c(Cl)c1Cl (stereo not shown) : Emax beneath 2000, strictly?
false (0)

Item CC(NC(=O)N(C)C1CCN(C)CC1)c1ccc(C2OCCO2)c(Cl)c1Cl (stereo not shown) : Emax beneath 2000, strictly?
false (0)

Item CC(NC(=O)N(C)C1CCN(C)CC1)c1ccc(C#CC2CC2)c(Cl)c1Cl (stereo not shown) [Compound H0764] : Emax beneath 2000, strictly?
true (1)

Item CC(NC(=O)N(C)C1CCN(C)CC1)c1ccc(-c2nc(C3CC3)no2)c(Cl)c1Cl (stereo not shown) : Emax beneath 2000, strictly?
false (0)

Item Cc1cc(-c2ccc(C(C)NC(=O)N(C)C3CCN(C)CC3)c(Cl)c2Cl)ncn1 (stereo not shown) : Emax beneath 2000, strictly?
true (1)

Item CC(NC(=O)N(C)C1CCN(C)CC1)c1ccc(-c2cnc(N)s2)c(Cl)c1Cl (stereo not shown) : Emax beneath 2000, strictly?
true (1)

* * *

Experiment: Metabolic Stability (H = Human)
Type: in vitro ADME
reportedMetric: Metabolic Stability H

CC(NC(=O)N(C)C1CCN(C)C1)c1ccc(-c2cn[nH]c2)c(Cl)c1Cl (centres unmarked) [Compound H0529] : Medium
CC(NC(=O)N(C)C1CCN(C)CC1)c1ccc(-c2ccc(C(N)=O)s2)c(Cl)c1Cl (centres unmarked) [Compound H0691] : High H High M
CC(NC(=O)N(C)C1CCN(C)CC1)c1ccc(-c2ccoc2)c(Cl)c1Cl (centres unmarked) [Compound H0507] : High H High M
CC(NC(=O)N(O)C1CCN(C)CC1)c1ccc(-c2cncc(C#N)c2)c(Cl)c1Cl (centres unmarked) [Compound H0667] : High H High M

The reported value for CN1CC[C@@H](N(C)C(=O)NC(c2ccc(-c3cnccn3)c(Cl)c2Cl)C(F)(F)F)C(C)(C)C1 (some centres unmarked) [Compound H0865] in terms of Metabolic Stability H is Medium

The reported value for CC(NC(=O)N(C)C1CCN(C)CC1)c1ccc(-c2cncc(C3=CCCC3)c2)c(Cl)c1Cl (centres unmarked) [Compound H0705] in terms of Metabolic Stability H is High H High M

The reported value for CCN(C(=O)NC(c1ccc(-c2cnccn2)c(Cl)c1Cl)C(F)(F)F)C1CCN(C)CC1 (centres unmarked) [Compound H0909] in terms of Metabolic Stability H is Medium

* * *

Target: GHSR1a (Homo sapiens, UniProt Q92847)
Construct: expressed in transfected cells; host or cells: HEK293
Sequence (Q92847 whole entry): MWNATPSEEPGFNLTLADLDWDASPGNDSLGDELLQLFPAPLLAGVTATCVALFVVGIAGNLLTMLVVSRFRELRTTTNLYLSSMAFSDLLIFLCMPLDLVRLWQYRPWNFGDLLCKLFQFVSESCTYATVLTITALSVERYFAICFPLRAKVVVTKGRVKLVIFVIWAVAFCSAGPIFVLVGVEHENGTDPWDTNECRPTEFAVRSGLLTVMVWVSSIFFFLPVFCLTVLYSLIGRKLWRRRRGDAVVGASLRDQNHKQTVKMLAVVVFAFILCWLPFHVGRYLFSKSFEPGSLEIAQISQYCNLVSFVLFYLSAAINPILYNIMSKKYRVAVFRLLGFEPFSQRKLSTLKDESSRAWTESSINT
Test: Calcium FLIPR assay, GHSR-1a agonism
Assay type: cell-based
Design: unit not given here
Details: HEK293/GHSR1a cells
With a cut-off of 2000, any Emax strictly below it is called label 1; any Emax meeting it or above is called label 0.

Answered examples (2):
COc1ccc(C(C#N)NC(=O)N(C)C2CCN(C)CC2)c(Cl)c1Cl (stereo not shown) [Compound H0669] : label 0
CC(NC(=O)N(C)C1CCN(C)CC1)c1ccc(-c2cnc(Cl)nc2)c(Cl)c1Cl (stereo not shown) [Compound H0801] : label 0

Item C=Cc1ccc(C(C)NC(=O)N(C)C2CCN(C)CC2)c(Cl)c1Cl (stereo not shown) [Compound H0626] : Emax beneath 2000, strictly?
label 0

Item CC(NC(=O)N(C)C1CCN(C)CC1)c1ccc(Nc2cccs2)c(Cl)c1Cl (stereo not shown) [Compound H0777] : Emax beneath 2000, strictly?
label 0

Item CC(NC(=O)N(C)C1CCN(C)CC1)c1ccc(C#CC2CC2)c(Cl)c1Cl (single isomer, unassigned) [Compound H0819] : Emax beneath 2000, strictly?
label 1

Item CC(NC(=O)N(C)C1CCN(C)CC1)c1ccc(-c2ccsc2)c2ccccc12 (stereo not shown) [Compound H0574] : Emax beneath 2000, strictly?
label 0

Item CC(NC(=O)N(C)C1CCN(C)CC1)c1ccc(-c2ccc(C3CC3)nc2)c(Cl)c1Cl (stereo not shown) [Compound H0820] : Emax beneath 2000, strictly?
label 0

Item CC(NC(=O)N(C)C1CCN(C)CC1)c1ccc(-c2ccc(CF)s2)c(Cl)c1Cl (stereo not shown) [Compound H0668] : Emax beneath 2000, strictly?
label 0

Item CC(NC(=O)N(O)C1CCN(C)CC1)c1ccc(-c2cncc(C#N)c2)c(Cl)c1Cl (stereo not shown) [Compound H0667] : Emax beneath 2000, strictly?
label 0

Item CNc1ncc(-c2ccc(C(C)NC(=O)N(C)C3CCN(C)CC3)c(Cl)c2Cl)cn1 (stereo not shown) [Compound H0806] : Emax beneath 2000, strictly?
label 0

Item CC(NC(=O)N(C)C1CCN(C)CC1)c1ccc(-c2cc(F)cc(F)c2)c(Cl)c1Cl (stereo not shown) [Compound H0605] : Emax beneath 2000, strictly?
label 1

Item CC(NC(=O)N(C)C1CCN(C)CC1)c1ccc(-c2cnc(C3CC3)nc2)c(Cl)c1Cl (stereo not shown) [Compound H0854] : Emax beneath 2000, strictly?
label 0

Item COC(=O)C(NC(=O)N(C)C1CCN(C)CC1)c1ccc(-c2cccs2)c(Cl)c1Cl (stereo not shown) [Compound H0660] : Emax beneath 2000, strictly?
label 0

Item CC(NC(=O)N(C)C1CCN(C)CC1)c1ccc(-c2cncc(C3CC3)c2)c(Cl)c1Cl (stereo not shown) [Compound H0765] : Emax beneath 2000, strictly?
label 0

Item CN1CCC(N(C)C(=O)NC(C#N)c2ccc(-c3ccsc3)c(Cl)c2Cl)CC1 (stereo not shown) [Compound H0644] : Emax beneath 2000, strictly?
label 0

Item CC(NC(=O)N(C)C1CCN(C)CC1)c1ccc(-c2ccc(C3CC3)cn2)c(Cl)c1Cl (stereo not shown) [Compound H0849] : Emax beneath 2000, strictly?
label 1

* * *

Biological target: GHSR1a (Homo sapiens, UniProt Q92847)
Construct: expressed in transfected cells; host or cells: HEK293
Assay: Calcium FLIPR assay, GHSR-1a agonism
Type: cell-based
Set-up: unit not given here
Conditions: HEK293/GHSR1a cells
reportedMetric: Emax
# output: bare number, no unit

Study these solved cases before continuing.
CCOC(C#Cc1ccc(C(C)NC(=O)N(C)C2CCN(C)CC2)c(Cl)c1Cl)OCC (stereo not shown) [Compound H0757] : 2704
Cc1nccnc1-c1ccc(C(C)NC(=O)N(C)[C@@H]2CCN(C)CC2(C)C)c(Cl)c1Cl (stereo partly shown) [Compound H0843] : 1910
CC(NC(=O)N(C)C1CCN(C)CC1)c1ccc(-c2cccs2)c(Cl)c1F (stereo not shown) [Compound H0582] : 2069
CC(NC(=O)N(C)C1CCN(C)CC1)c1ccc(-c2nc(N3CCOCC3)nc(N3CCOCC3)n2)c(Cl)c1Cl (stereo not shown) [Compound H0796] : 1671
CC(NC(=O)N(C)C1CCN(C)CC1)c1ccc(-c2ccc(C(F)F)s2)c(Cl)c1Cl (stereo not shown) [Compound H0654] : 2200

The reported value for CC(NC(=O)N(C)C1CCN(C)CC1)c1ccc(-c2cncc(C#N)n2)c(Cl)c1Cl (stereo not shown) [Compound H0788] in terms of Emax is 1230

The reported value for C#Cc1cncc(-c2ccc(C(C)NC(=O)N(C)C3CCN(C)CC3)c(Cl)c2Cl)c1 (stereo not shown) [Compound H0710] in terms of Emax is 1621

The reported value for CC(NC(=O)N(C)C1CCN(C)CC1)c1ccc(-c2cnc(C#N)nc2)c(Cl)c1Cl (stereo not shown) [Compound H0802] in terms of Emax is 4149

The reported value for CC(NC(=O)N(C)C1CCN(C)CC1)c1ccc(-c2cnc(NC(=O)C3CC3)nc2)c(Cl)c1Cl (stereo not shown) [Compound H0807] in terms of Emax is 3669

The reported value for C#Cc1ccc(C(C)NC(=O)N(OCC)C2CCN(C)CC2)c(Cl)c1Cl (stereo not shown) [Compound H0749] in terms of Emax is 1554

The reported value for CC(NC(=O)N(C)C1CCN(C)CC1)c1ccc(-c2cnc(NC3CC3)nc2)c(Cl)c1Cl (stereo not shown) [Compound H0805] in terms of Emax is 5433
